- experimental system: Sodium channel protein type 9 subunit alpha (Homo sapiens)
- Sequence (Q15858 whole entry): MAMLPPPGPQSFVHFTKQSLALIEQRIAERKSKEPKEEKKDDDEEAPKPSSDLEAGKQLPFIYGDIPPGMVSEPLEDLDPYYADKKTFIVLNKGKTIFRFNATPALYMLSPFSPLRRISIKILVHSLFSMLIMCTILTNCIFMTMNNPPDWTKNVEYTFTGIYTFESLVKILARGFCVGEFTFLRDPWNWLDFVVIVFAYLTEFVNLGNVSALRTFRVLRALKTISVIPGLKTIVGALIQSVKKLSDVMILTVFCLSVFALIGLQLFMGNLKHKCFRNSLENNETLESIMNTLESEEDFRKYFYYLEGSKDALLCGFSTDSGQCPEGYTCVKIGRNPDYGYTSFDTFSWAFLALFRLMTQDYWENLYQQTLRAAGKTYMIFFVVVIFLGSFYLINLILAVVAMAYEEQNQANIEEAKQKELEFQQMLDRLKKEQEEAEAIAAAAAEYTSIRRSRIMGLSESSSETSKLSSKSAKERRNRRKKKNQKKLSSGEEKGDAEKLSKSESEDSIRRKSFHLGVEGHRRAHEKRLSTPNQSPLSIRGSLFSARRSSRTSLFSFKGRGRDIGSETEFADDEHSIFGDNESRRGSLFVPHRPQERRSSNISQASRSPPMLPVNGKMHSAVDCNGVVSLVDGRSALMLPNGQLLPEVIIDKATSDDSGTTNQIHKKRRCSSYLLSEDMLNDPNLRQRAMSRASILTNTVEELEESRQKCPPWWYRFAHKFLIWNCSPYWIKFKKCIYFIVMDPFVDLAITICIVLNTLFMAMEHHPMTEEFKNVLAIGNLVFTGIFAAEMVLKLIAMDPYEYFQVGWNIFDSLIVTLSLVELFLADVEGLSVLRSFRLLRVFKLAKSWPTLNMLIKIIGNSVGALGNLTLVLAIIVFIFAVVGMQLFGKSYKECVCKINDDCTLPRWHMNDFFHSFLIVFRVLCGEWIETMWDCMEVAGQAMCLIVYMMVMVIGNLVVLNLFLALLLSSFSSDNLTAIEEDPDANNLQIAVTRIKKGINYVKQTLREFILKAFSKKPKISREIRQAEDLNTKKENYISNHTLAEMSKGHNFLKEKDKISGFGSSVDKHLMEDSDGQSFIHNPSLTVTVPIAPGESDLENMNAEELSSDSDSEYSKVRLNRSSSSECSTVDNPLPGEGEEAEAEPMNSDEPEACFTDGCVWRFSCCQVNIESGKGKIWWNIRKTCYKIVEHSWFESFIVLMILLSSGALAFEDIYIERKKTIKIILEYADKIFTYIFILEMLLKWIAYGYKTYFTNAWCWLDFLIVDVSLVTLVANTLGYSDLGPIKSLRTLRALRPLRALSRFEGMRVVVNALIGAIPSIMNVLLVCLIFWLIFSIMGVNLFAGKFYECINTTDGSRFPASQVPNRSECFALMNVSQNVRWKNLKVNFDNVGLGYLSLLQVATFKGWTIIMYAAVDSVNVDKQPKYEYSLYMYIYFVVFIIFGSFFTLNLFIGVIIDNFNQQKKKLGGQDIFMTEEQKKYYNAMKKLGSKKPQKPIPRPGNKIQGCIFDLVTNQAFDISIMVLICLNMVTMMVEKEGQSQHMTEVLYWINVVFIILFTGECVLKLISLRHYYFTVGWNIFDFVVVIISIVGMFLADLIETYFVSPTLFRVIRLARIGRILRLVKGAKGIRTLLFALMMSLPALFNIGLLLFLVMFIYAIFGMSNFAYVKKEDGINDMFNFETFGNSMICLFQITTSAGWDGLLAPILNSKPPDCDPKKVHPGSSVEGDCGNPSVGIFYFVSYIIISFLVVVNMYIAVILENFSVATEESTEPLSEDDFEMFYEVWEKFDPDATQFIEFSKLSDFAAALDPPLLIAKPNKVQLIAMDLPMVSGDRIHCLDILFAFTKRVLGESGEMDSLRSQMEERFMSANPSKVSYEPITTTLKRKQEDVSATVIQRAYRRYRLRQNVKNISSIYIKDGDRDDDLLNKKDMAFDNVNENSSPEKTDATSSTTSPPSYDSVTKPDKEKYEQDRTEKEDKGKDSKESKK
- protocol: EFS-FRET Assay: This screen is used to determine the effects of compounds on human Nav1.7 channels, utilizing electrical field stimulation (EFS) system in 96-well plate format on FDSS (Hamamatsu Photonics) platform. The changes of membrane potential are monitored with FRET dye pair, DiSBAC2(3) and PTS 18.
pIC50: −log10 of the molar value.

{"columns": ["compound", "pIC50"],
 "data": [
  ["Cc1cc(OCC2CCC2)cnc1-c1cccc(OCc2ccc(C(=O)NS(C)(=O)=O)cc2)c1", "> 6.30"],
  ["Cc1nc(OCC2CC2)ccc1-c1cccc(OCc2ccc(C(=O)NS(C)(=O)=O)cc2)c1", "> 6.30"],
  ["CS(=O)(=O)NC(=O)c1ccc(COc2cc(F)cc(-c3ccc(OCC4CC4)nc3)c2)cc1", "> 6.30"],
  ["Cc1c(OCC2CC2)ccnc1-c1cc(F)cc(OCc2ccc(C(=O)NS(C)(=O)=O)cc2)c1", "> 6.30"],
  ["CS(=O)(=O)NC(=O)c1ccc(COc2cc(F)cc(-c3cnc(OCC4CC4)nc3)c2)cc1", "> 6.30"],
  ["CS(=O)(=O)NC(=O)c1ccc(COc2ccc(F)c(-c3ccc(OCC4CC4)nc3)c2)cc1", "> 6.30"],
  ["O=C(NS(=O)(=O)C1CC1)c1ccc(COc2ccc(F)c(-c3ccc(OCC4CC4)nc3)c2)c(F)c1", "> 6.30"],
  ["CN(C)C(=O)c1cc(OCC2CC2)cc(-c2cc(F)cc(OCc3ccc(C(=O)NS(C)(=O)=O)cc3F)c2)c1", "> 6.30"],
  ["CS(=O)(=O)NC(=O)c1ccc(COc2cc(-c3cccnc3)cc(-c3ccc(OCC4CC4)nc3)c2)cc1", "> 6.30"],
  ["Cc1cc(OCC2CC2)ncc1-c1cc(F)cc(OCc2ccc(C(=O)NS(C)(=O)=O)cc2)c1", "> 6.30"],
  ["Cc1cc(OCc2ccc(C(=O)NS(=O)(=O)C3CC3)cc2F)cc(-c2ccc(OCC3CC3)nc2)c1", "> 6.30"],
  ["CS(=O)(=O)NC(=O)c1ccc(COc2ccc(F)c(-c3cccc(OCC4CC4)n3)c2)c(F)c1", "> 6.30"],
  ["CCS(=O)(=O)NC(=O)c1ccc(COc2cccc(-c3ccc(OCC4CC4)nc3)c2)c(F)c1", "> 6.30"],
  ["CS(=O)(=O)NC(=O)c1ccc(COc2ccc(Cl)c(-c3ccc(OCC4CC4)nc3)c2)cc1", "> 6.30"],
  ["CS(=O)(=O)NC(=O)c1ccc(COc2cccc(-c3ccc(OCC4CC4)nc3)c2)c(Cl)c1", "> 6.30"],
  ["O=C(NS(=O)(=O)c1nccs1)c1ccc(COc2cccc(-c3ccc(OCC4CC4)nc3)c2)cc1", "> 6.30"],
  ["O=C(NS(=O)(=O)C1CC1)c1ccc(COc2cccc(-c3ccc(OCC4CCOCC4)nc3)c2)cc1", "> 6.30"],
  ["Cc1c(-c2cc(OCc3ccc(C(=O)NS(C)(=O)=O)cc3F)ccc2F)ccnc1OCC1CC1", "> 6.30"],
  ["CS(=O)(=O)NC(=O)c1ccc(COc2cccc(-c3cc(OCC4CC4)ccn3)c2)c(F)c1", "> 6.30"],
  ["CS(=O)(=O)NC(=O)c1ccc(COc2cc(-c3ccc(OCC4CC4)nc3)cc(C3CC3)c2)cc1", "> 6.30"],
  ["CS(=O)(=O)NC(=O)c1ccc(COc2cccc(-c3ccc(OCC4CCOC4)nc3)c2)c(F)c1 (stereo not given)", "> 6.30"],
  ["CS(=O)(=O)NC(=O)c1ccc(COc2cccc(-c3cnc(OCC4CCC4)cn3)c2)cc1", "> 6.30"],
  ["CS(=O)(=O)NC(=O)c1ccc(COc2cc(F)cc(-c3cnc(OCC4CC4)c(Cl)c3)c2)c(F)c1", "> 6.30"],
  ["CC(C)(C)OC(=O)N1CCC(COc2ccc(-c3cccc(OCc4ccc(C(=O)NS(C)(=O)=O)cc4)c3)cn2)CC1", "> 6.30"],
  ["CN(C)C(=O)c1cc(-c2cccc(OCc3ccc(C(=O)NS(C)(=O)=O)cc3F)c2)ccc1OCC1CC1", "> 6.30"],
  ["N#Cc1cc(C(=O)NS(=O)(=O)C2CC2)ccc1COc1cccc(-c2ccc(OCC3CC3)nc2)c1", "> 6.30"],
  ["O=C(NS(=O)(=O)C1CC1)c1ccc(COc2cc(F)cc(-c3ccc(OCC4CC4)nc3)c2)cc1", "> 6.30"],
  ["CS(=O)(=O)NC(=O)c1ccc(COc2cc(F)cc(-c3cnc(OCC4CCC4)c(CO)c3)c2)cc1", "> 6.30"],
  ["Cc1cc(OCC2CC2)cnc1-c1cc(F)cc(OCc2ccc(C(=O)NS(C)(=O)=O)cc2)c1", "> 6.30"],
  ["CS(=O)(=O)NC(=O)c1cc(F)c(COc2cccc(-c3ccc(OCC4CC4)nc3)c2)c(F)c1", "> 6.30"],
  ["O=C(NS(=O)(=O)C(F)(F)F)c1ccc(COc2cccc(-c3ccc(OCC4CC4)nc3)c2)cc1", "> 6.30"],
  ["CS(=O)(=O)NC(=O)c1ccc(COc2cc(F)cc(-c3ccc(OCC4CCOC4)nc3)c2)cc1 (stereo not given)", "> 6.30"],
  ["CCOC(=O)N1CCC(COc2ccc(-c3cccc(OCc4ccc(C(=O)NS(C)(=O)=O)cc4)c3)cn2)CC1", "> 6.30"],
  ["CS(=O)(=O)NC(=O)c1ccc(COc2cc(F)cc(-c3cc(OCC(N)=O)cc(OCC4CC4)c3)c2)c(F)c1", "> 6.30"],
  ["CN(CCO)Cc1cc(OCC2CC2)cc(-c2cc(F)cc(OCc3ccc(C(=O)NS(C)(=O)=O)cc3F)c2)c1", "> 6.30"]
]}

###

- experimental system: Sodium channel protein type 9 subunit alpha (Homo sapiens)
- protocol: EFS-FRET Assay: This screen is used to determine the effects of compounds on human Nav1.7 channels, utilizing electrical field stimulation (EFS) system in 96-well plate format on FDSS (Hamamatsu Photonics) platform. The changes of membrane potential are monitored with FRET dye pair, DiSBAC2(3) and PTS 18.
IC50 reference

{"columns": ["item smiles", "experimental system", "IC50"],
 "data": [
  ["CS(=O)(=O)NC(=O)c1ccc(COc2cc(-c3ccc(OCC4CC4)nc3)ccc2F)cc1", "Sodium channel protein type 9 subunit alpha (Homo sapiens)", "< 500 nM"],
  ["Cn1cc(-c2cc(OCc3ccc(C(=O)NS(C)(=O)=O)cc3)cc(-c3ccc(OCC4CC4)nc3)c2)cn1", "Sodium channel protein type 9 subunit alpha (Homo sapiens)", "< 500 nM"],
  ["CS(=O)(=O)NC(=O)c1ccc(COc2cc(F)cc(-c3cncc(OCC4CC4)n3)c2)cc1", "Sodium channel protein type 9 subunit alpha (Homo sapiens)", "< 500 nM"],
  ["CS(=O)(=O)NC(=O)c1ccc(COc2cc(F)cc(-c3ccc(OCC4CC4)nc3)c2)c(F)c1", "Sodium channel protein type 9 subunit alpha (Homo sapiens)", "< 500 nM"],
  ["CS(=O)(=O)NC(=O)c1ccc(COc2cc(F)cc(-c3ccc(OCC4CC4)cn3)c2)cc1", "Sodium channel protein type 9 subunit alpha (Homo sapiens)", "< 500 nM"],
  ["CS(=O)(=O)NC(=O)c1ccc(COc2cc(F)cc(-c3cc(OCC4CC4)cc(C(=O)N4CCOCC4)c3)c2)c(F)c1", "Sodium channel protein type 9 subunit alpha (Homo sapiens)", "< 500 nM"],
  ["CN(CC1CC1)c1ncc(-c2cccc(OCc3ccc(C(=O)NS(C)(=O)=O)cc3F)c2)cn1", "Sodium channel protein type 9 subunit alpha (Homo sapiens)", "< 500 nM"],
  ["CS(=O)(=O)NC(=O)c1ccc(COc2cc(F)cc(-c3ncc(OCC4CC4)cn3)c2)cc1", "Sodium channel protein type 9 subunit alpha (Homo sapiens)", "< 500 nM"]
]}
